Values compiled from PubChem BioAssay.

# assay_name: 384-well plate pilot, post-Golgi transport modulator project, inhibition of yeast transport mutant growth (AID 636)
# run_parameters: absorbance 615 nm, about 18 h, stronger effect = higher value
measurement_name: inhibition (%)
# unit: % | format: bare number

Some solved entries appear below for comparison.
Report inhibition, nothing else, for this molecule: COc1cccc(-c2nnc3sc(C4CCCCC4)nn23)c1 -1.58

Return inhibition (reported value) for this molecule: NCCCCCc1nnc(SC/C=C/c2ccccc2)o1 -6.85

Return reported inhibition. Input molecule: CCOC(=O)N1CCN(Cc2ccccc2F)CC1 -7.33

For the molecule Cc1cc(NC(=O)C(C)(C)C)no1 , give its measured inhibition value. -1.2

Indicate its recorded inhibition; the molecule in question is C=CCn1c(=O)c2ccccc2n2c(SC(C)C(=O)Nc3nc(-c4ccccc4)cs3)nnc12 (stereo not given) 2.6

Tell me its inhibition given O=C(C1=C(O)C(=O)N(c2ncccn2)C1c1cccc(Cl)c1)c1ccco1 (stereo not given) as the entry. 2.33

***
Determine its reported inhibition: CCOC(=O)c1c(C)[nH]c(C)c1C(=O)COC(=O)CNC(=O)c1ccc(OCC)cc1 -2.34

* * *

# assay_name: reducers of endogenous Her2 protein level, primary screen, SKBR3 breast tumor cells, AlphaScreen, ATP viability (AID 461);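 also: percent of carrier control wells set as 100% viability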
# run_parameters: 18-24 h, measured here: SKBR3 viability, ATP luminescence, at 10 µM
A collection of molecules and their measured viability
Answer format: numeric, % implied, no suffix.

Record excerpt, results attached:
Identify measured viability associated with Cn1cccc1Cc1nnc(SCC(=O)N2CCOCC2)n1-c1ccc(F)cc1 88.5

Give viability for the following molecule: CC1(C)CC(=O)c2cnc(NC(=O)CSc3nc4ccccc4o3)nc2C1 96

Complete the entry with viability for O=c1/c(=C/c2ccco2)sc2nc(-c3ccccc3Br)nn12 97

Determine its reported viability: O=C(OCc1cccs1)c1ccccc1NS(=O)(=O)c1ccc2c(c1)OCCO2 91.5

Please indicate viability recorded for Cc1nc2cc(N3CCCCC3)c(NC(=O)c3cccnc3)cc2c(=O)n1Cc1ccccc1 64

Please list viability recorded for the molecule Cc1ccc(-n2ncc3c(N4CCN(c5ccc(F)cc5)CC4)ncnc32)c(C)c1 87.5

Indicate its recorded viability; the molecule in question is CC(=O)Nc1sc2c(c1C#N)CCCCC2 132

Annotate the molecule CCCCCn1c2nc3ccccc3nc2c2c(=O)n(CC(C)C)cnc21 with its measured viability. 116

---
Give the measured viability for CCOC(=O)c1sc(NC(=O)COC(=O)Cn2cnc3ccccc32)c(C(=O)OCC)c1C 96

Input CCOC(=O)c1cnn(-c2ncnc3c2cnn3Cc2ccccc2)c1N , output reported viability. 99.5

State its viability: COc1ccccc1C(=O)NC(C)C(c1cccs1)N1CCN(C)CC1 (stereo unspecified) 103

* * *

// values below are reported viability
# assay_name: HUVEC growth inhibition – cell-based, human, primary screen (AID 575);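 also: 100% = median of untreated cell wells with 0.1% DMSO on each plate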
# run_parameters: HUVEC proliferation, CellTiter-Glo luminescence, 72 h; at 10 µM; stronger effect = lower value
The source made the active and inactive calls.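 The calls were made as follows: active = viability at or below 30% in both replicate assays; inconclusive = viability at or below 30% in just one of the two assays; inactive = the rest.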

Before answering, review these 6 worked examples.
Provide viability value for the following compound: O=C(Nc1cccnc1)Nc1ccc(F)c(Cl)c1 86.6% (inactive)

State its viability: CCOc1ccc(NC(=O)C2CC(=O)N(CC)C(=Nc3ccc4c(c3)OCO4)S2)cc1 (stereo unspecified) 109% (inactive)

Write down viability measured for item COc1cc2c(C#N)c(N3CCOCC3)nc(N)c2c(N)n1 90% (inactive)

Complete the entry with viability for Cc1cc(C)n(C(=O)CCCCCC(=O)n2nc(C)cc2C)n1 105% (inactive)

Complete the entry with viability for CCOc1ccc(S(=O)(=O)N(C)C)cc1-c1nc2c(C(C)(C)C)nn(C)c2c(=O)[nH]1 103% (inactive)

Report viability for CCOC(=O)C1CCN(c2nc3ccccc3nc2C(C#N)C(=O)OC(C)C)CC1 (stereo unspecified) 83.9% (inactive)

Kindly review the next compound as well.
Give the measured viability for CCOC(=O)c1ccc(NS(=O)(=O)c2ccc(SC)cc2)cc1 99% (inactive)
